experiment: Toxicity in brine shrimp; format: organism-based; settings: artemia, in vivo
Cut-off 60 µg/mL on LC50: below means TRUE, at or above means FALSE.

Solved cases below.
> print(dat)
                                   molecule  label.class
1  COc1cc2c(c(OC)c1OC)-c1ccc(OC)c(=O)cc1[C@@H](NC(C)=O)CC2 (stereo in doubt; 1) [COLCHICINE]         TRUE
2  COc1c(O)cc2c(c1OC)-c1ccc(OC)c(=O)cc1[C@@H](NC(C)=O)CC2 [3-DESMETHYLCOLCHICIN]        FALSE
3  COc1ccc2c(c1O)[C@@H](NC(C)=O)CCc1cc(OC)c(OC)c(OC)c1-2         TRUE
4  CN[C@H]1CCc2cc(O)c(OC)c(OC)c2-c2ccc(OC)c(=O)cc21        FALSE
5  CN[C@H]1CCc2cc(O)c(O)c(OC)c2-c2ccc(OC)c(=O)cc21        FALSE

Challenge: Strictly below 60 µg/mL in LC50? COC1=C2c3ccc(OC)c(=O)cc3[C@H]3CC4(C)N3C24C=C(O)C1=O (some centres undefined) [DEMECOLCINONE]
Response given: FALSE

Challenge: Strictly below 60 µg/mL in LC50? COC1=C[C@@H]2C3=C([C@@H]2C1=O)[C@@H](NC(C)=O)CCc1cc(OC)c(OC)c(OC)c13
Response given: FALSE

Challenge: Strictly below 60 µg/mL in LC50? COc1c2c(cc3c1-c1ccc(OC)c(=O)cc1[C@@H](NC(C)=O)CC3)OCO2
Response given: TRUE
